protocol.details: Tmax in rat at 1 mg/kg, po
Type: ADME, organism-based
measurement.conditions: in vivo
test.readout: Tmax (min)

In [3]: df
Out[3]:
                                   compound  result_units  recorded_value
0  CCNC(=O)c1cc2c(-c3cc(C(C)(C)O)ccc3Oc3c(C)cc(F)cc3C)cn(C)c(=O)c2[nH]1 [ABBV-744]           min             7.5

---

protocol.details: Tmax in monkey at 1 mg/kg, po
Format: ADME, organism-based, Macaca mulatta
measurement.conditions: rhesus monkey, in vivo
test.readout: Tmax (h)

>>> df
                           substance_smiles  result_units  recorded_value
0  CCNC(=O)c1cc2c(-c3cc(C(C)(C)O)ccc3Oc3c(C)cc(F)cc3C)cn(C)c(=O)c2[nH]1             h             1.5

---

protocol.details: Half life in monkey at 0.3 mg/kg, po
Assay type: ADME, organism-based, Macaca mulatta
measurement.conditions: rhesus monkey, in vivo
test.readout: half-life (h)

>>> print(df.to_string())
                           substance_smiles  test_readout  result_units  recorded_value
0  CCNC(=O)c1cc2c(-c3cc(C(C)(C)O)ccc3Oc3c(C)cc(F)cc3C)cn(C)c(=O)c2[nH]1     half-life             h             2.5

---

protocol.details: Half life in mouse at 1 mg/kg, po
Format: ADME, organism-based
measurement.conditions: in vivo
test.readout: half-life

>>> print(df.to_string())
                           substance_smiles  recorded_value
0  CCNC(=O)c1cc2c(-c3cc(S(=O)(=O)CC)ccc3Oc3c(C)cccc3C)cn(C)c(=O)c2[nH]1             1 h
1  CCNC(=O)c1cc2c(-c3cc(C(C)(C)O)ccc3Oc3c(C)cc(F)cc3C)cn(C)c(=O)c2[nH]1           2.8 h

---

protocol.details: Cmax in dog at 1 mg/kg, po
Type: ADME, organism-based, Canis lupus familiaris
Design: dose 1 mg/kg, route oral
measurement.conditions: in vivo
test.readout: Cmax (ng/mL)

In [3]: df
Out[3]:
                           substance_smiles  test_readout  recorded_value
0  CCNC(=O)c1cc2c(-c3cc(C(C)(C)O)ccc3Oc3c(C)cc(F)cc3C)cn(C)c(=O)c2[nH]1          Cmax             116

---

protocol.details: AUC in rat at 1 mg/kg, iv
Format: ADME, organism-based
measurement.conditions: in vivo
test.readout: AUC (µg·h/mL)

In [3]: df
Out[3]:
                           substance_smiles  recorded_value
0  CCNC(=O)c1cc2c(-c3cc(C(C)(C)O)ccc3Oc3c(C)cc(F)cc3C)cn(C)c(=O)c2[nH]1             0.5
1  CCNC(=O)c1cc2c(-c3cc(S(=O)(=O)CC)ccc3Oc3c(C)cccc3C)cn(C)c(=O)c2[nH]1           0.384

---

protocol.details: Clearance in rat plasma at 1 mg/kg, iv
Assay type: ADME, organism-based
test.readout: clearance (mL/min/kg)

>>> df
                           substance_smiles  test_readout  result_units  recorded_value
0  CCNC(=O)c1cc2c(-c3cc(S(=O)(=O)CC)ccc3Oc3c(C)cccc3C)cn(C)c(=O)c2[nH]1     clearance     mL/min/kg            45.2
1  CCNC(=O)c1cc2c(-c3cc(C(C)(C)O)ccc3Oc3c(C)cc(F)cc3C)cn(C)c(=O)c2[nH]1     clearance     mL/min/kg            11.2

Origin of the recorded values: ChEMBL document CHEMBL4342522
